Test method notes: gradient 5% acetonitrile 3 min, to 50% in 2 min, to 85% in 15 min, held 3 min, 100 µL/min
Setup conditions: column: Zorbax Extend-C18 2.1 x 50 mm; eluents: water / acetonitrile, 0.1% formic acid
Each entry below carries its reported RP-LC retention time.
Unit s implied. Number only.

{"Compound": "O=C(O)CCc1conc1-c1cccc(F)c1", "Measure name": "RP-LC retention time", "Observed measurement": 729}
{"Compound": "COC(=O)C1=C(CN2CCSCC2)NC(=O)NC1c1ccccc1Cl (centres undefined)", "Measure name": "RP-LC retention time", "Observed measurement": 621}
{"Compound": "Cc1cc(-c2nnc(NC(=O)c3cnn(-c4ccccc4)c3C)o2)c(C)o1", "Measure name": "RP-LC retention time", "Observed measurement": 798}

Now, please, on to the next compound.
Which RP-LC retention time is reported for this compound? Cn1nc2n(c1=O)CCN(C(=O)c1ccsc1)CC2 570

* * *

Test method notes: gradient 5% acetonitrile 3 min, to 50% in 2 min, to 85% in 15 min, held 3 min, 100 µL/min
Setup conditions: column: Zorbax Extend-C18 2.1 x 50 mm; eluents: water / acetonitrile, 0.1% formic acid
Rule: RP-LC retention time below 900 s gives Fulfilled, anything at or above gives Not fulfilled.

Examples with answers:
{"Test smiles": "Cc1nc(-c2ccccc2)nc2c1CC(=O)N2Cc1cccs1", "Assigned label": "Not fulfilled"}
{"Test smiles": "Cc1ccc(-n2c(=O)n(CC(=O)Nc3ccccc3C)c3cccnc32)cc1", "Assigned label": "Fulfilled"}
{"Test smiles": "COC(=O)c1ccc(NC(=O)C(=O)NCCOc2ccc(F)cc2)cc1", "Assigned label": "Fulfilled"}
{"Test smiles": "Cc1nn2c(CNC(=O)c3ccco3)c(-c3ccccc3)nc2s1", "Assigned label": "Fulfilled"}
{"Test smiles": "COc1ccc(OCc2nn3c(COc4ccc(F)cc4)nnc3s2)cc1", "Assigned label": "Not fulfilled"}

State whether 900 s exceeds RP-LC retention time recorded for Cc1nc2nc(-c3ccc(C(C)(C)C)cc3)nn2c(C)c1CC(=O)N1CCOCC1 . Fulfilled

State whether 900 s exceeds RP-LC retention time recorded for O=C(c1ccc(F)cc1F)N1CCN(c2nc(CN3CCCC3)cs2)CC1 . Fulfilled

* * *

Each entry below carries its reported RP-LC retention time.
Test method notes: gradient 5% acetonitrile 3 min, to 50% in 2 min, to 85% in 15 min, held 3 min, 100 µL/min
Setup conditions: column: Zorbax Extend-C18 2.1 x 50 mm; eluents: water / acetonitrile, 0.1% formic acid
Unit s implied. Number only.

Examples from the recorded data:
{"Compound": "CCn1c(=O)c(C(=O)NCc2ccc(C)cc2)nc2cccnc21", "Unit info": "s", "RP-LC retention time": 781}
{"Compound": "Clc1ccc(-c2ccc(CNCC3CCCO3)o2)cc1 (stereo not drawn)", "Unit info": "s", "RP-LC retention time": 688}

Now, please, on to the next compound.
Which RP-LC retention time is reported for this compound? CCOc1cc(-c2ccc(C)cc2)nc2ccc(NC(=O)c3cccs3)cc12 824

* * *

Test method notes: gradient 5% acetonitrile 3 min, to 50% in 2 min, to 85% in 15 min, held 3 min, 100 µL/min
Setup conditions: column: Zorbax Extend-C18 2.1 x 50 mm; eluents: water / acetonitrile, 0.1% formic acid
Measure name: RP-LC retention time (s)
Unit s implied. Number only.

Examples from the recorded data:
{"Compound": "O=C(NCc1ccc2c(c1)OCCCO2)c1cccs1", "Unit info": "s", "Observed measurement": 791}
{"Compound": "O=S(=O)(c1cccc(-c2nc(-c3ccccc3)no2)c1)N1CCC2(CC1)OCCO2", "Unit info": "s", "Observed measurement": 784}
{"Compound": "COc1ccc(C(=O)NCCC(O)C(C)(C)C)cc1 (configuration not stated)", "Unit info": "s", "Observed measurement": 688}

Which RP-LC retention time is reported for this compound? C=CCNC(=O)c1cnn(-c2ccc(-c3nc(C(C)(C)C)no3)cn2)c1C 759

Which RP-LC retention time is reported for this compound? c1cnc(N2CCN(c3nc4ccccc4s3)CC2)nc1 809

Which RP-LC retention time is reported for this compound? CCOc1ccc(CNc2nc3ccccc3n2CCN(CC)CC)cc1 1300
